System: UACC-257 melanoma
Experiment: NCI tumour cell line growth inhibition, 48 h; in the data active = GI50 below about 0.43 µM; inactive = the rest
Labels: active, inactive

>  <Compound>
Nc1nc2c(nnn2C2CC(O)C(CO)O2)c(=O)[nH]1 (stereo not given)

>  <Assigned Class>
inactive

$$$$
>  <Compound>
O=C1C(Cl)=C(NCCN2CCOCC2)C(=O)c2ncccc21

>  <Assigned Class>
inactive

$$$$
>  <Compound>
COc1cc2cc(Oc3ccc(NC(=O)Nc4ccc(Cl)c(C(F)(F)F)c4)cc3)c(C)nc2cc1OCCN1CCOCC1

>  <Assigned Class>
inactive

$$$$
>  <Compound>
Nc1nc(N(Cc2ccccc2)c2ccccc2)c2cn[nH]c2n1

>  <Assigned Class>
inactive

$$$$
>  <Compound>
Cc1ccc(C(=O)N(CCCN)C(c2oc3cc(Cl)ccc3c(=O)c2Cc2ccccc2)C(C)C)cc1 (stereo not given)

>  <Assigned Class>
active

$$$$
>  <Compound>
O=C(O)CCNC1CCCCC1

>  <Assigned Class>
inactive

$$$$
>  <Compound>
O=c1cc(-c2ccccc2)oc2cc(OC/C(=N/O)c3ccccc3)ccc12

>  <Assigned Class>
inactive

$$$$
>  <Compound>
COc1ccc(-c2nc(-c3nc4ccc(Cl)cc4[nH]3)c3ccccn23)cc1

>  <Assigned Class>
inactive

$$$$
>  <Compound>
O=C(Nc1ccc(-c2nc(N3CCOCC3)c3cccn3n2)cc1)Nc1cccnc1

>  <Assigned Class>
inactive

$$$$
>  <Compound>
O=C(CCc1nnc2sc(-c3ccc(Cl)cc3Cl)nn12)c1nc2ccccc2[nH]1

>  <Assigned Class>
inactive

$$$$
>  <Compound>
CC/C=C\C[C@H](F)C/C=C1/C(=O)C=C[C@@H]1C/C=C\CCCC(=O)O

>  <Assigned Class>
inactive

$$$$
>  <Compound>
COc1ccc2c(c1)C(=O)c1c-2n(CCCn2ccnc2)c(=O)c2cc([N+](=O)[O-])ccc12

>  <Assigned Class>
active

$$$$
>  <Compound>
Cc1ccc2c(c1)Sc1c(ccc3ccccc13)N2

>  <Assigned Class>
inactive

$$$$
>  <Compound>
N#CC(C#N)=C1Nc2ccccc2S1

>  <Assigned Class>
inactive

$$$$
>  <Compound>
CS(=O)(=O)CCNCc1ccc(-c2ccc3ncnc(Nc4ccc(OCc5ccccc5)cc4)c3c2)o1

>  <Assigned Class>
inactive

$$$$
>  <Compound>
C[N+]1=C(/C=C/c2ccc(O)c3ncccc23)C(C)(C)c2ccccc21

>  <Assigned Class>
inactive

$$$$
>  <Compound>
Cc1ccc(-c2nc3nc(-c4ccccc4)nc(N4CCCNCC4)c3o2)cc1

>  <Assigned Class>
inactive

$$$$
>  <Compound>
CC1(C)OC2=C(CC1Br)C(=O)C(=O)c1ccccc12 (stereo not given)

>  <Assigned Class>
inactive

$$$$
>  <Compound>
O=C(O)/C=C(\c1nc2ccc([N+](=O)[O-])cc2[nH]1)c1cc(Cl)ccc1O

>  <Assigned Class>
inactive

$$$$
>  <Compound>
Cc1cc(-c2cnn3c(NCC4CC(C)(O)C4)cc(Oc4cccnc4)nc23)ccc1C(=O)NC1CC1 (stereo not given)

>  <Assigned Class>
inactive

$$$$

* * *

System: HS 578T breast
Test: NCI tumour cell line growth inhibition, 48 h; in the data active means GI50 below about 0.43 µM; inactive means the rest
Labels: 1 for active, -1 for inactive

>  <Smiles Entry>
CS(=O)(=O)c1ccc(-n2nc(C(F)(F)F)cc2OC2CCCC2)cc1

>  <Test System>
HS 578T breast

>  <Assigned Class>
-1

$$$$
>  <Smiles Entry>
C=C(C[C@](O)(C(=O)/C=C/c1ccc(Cl)cc1)C(=O)OC)c1ccccc1

>  <Test System>
HS 578T breast

>  <Assigned Class>
-1

$$$$
>  <Smiles Entry>
COc1cc[nH]c1/C=C1\C(=O)Nc2ccc(F)c(C#CC3(O)CCNCC3)c21

>  <Test System>
HS 578T breast

>  <Assigned Class>
1

$$$$
>  <Smiles Entry>
O=C(O)CCNC1CCCCC1

>  <Test System>
HS 578T breast

>  <Assigned Class>
-1

$$$$
>  <Smiles Entry>
COc1ccc(-c2nc(-c3nc4ccc(Cl)cc4[nH]3)c3ccccn23)cc1

>  <Test System>
HS 578T breast

>  <Assigned Class>
-1

$$$$
